test_description: physchem
condition_info: octan-1-ol/water, pH 7.4, LogD7.4
Hi! Could you tag entries with logD below 2 as class 1, and those at or above as class 0? Much appreciated.

Answered cases to consult:
Hi there! Is logD for `Cc1cc(Nc2nc(O[C@@H](C)c3ncc(F)cn3)ncc2Cl)[nH]n1` below 2, do you know? class 1

I wonder whether `O=C(Nc1ccc(Cl)c(Cl)c1)N1CCN(C[C@H]2CN(C3CC3)CCO2)CC1` has logD below 2. Can you tell? class 0

Record `Cc1nn(-c2ccc(F)cc2)c(NS(=O)(=O)c2ccc(C#N)cc2)c1C(=O)N[C@@H](C)C(C)(C)C` : is its logD strictly below 2? class 1

Lab note: logD threshold 2. Does this molecule come in strictly under it? `CN[C@@H](C)C(=O)N[C@H](C(=O)N[C@H]1CCCN(C(=O)Cc2ccccc2)C1)C1CCCCC1` class 1

Others:
Does the reported logD of the following molecule sit strictly below 2? `CC[C@H](CO)Nc1nc(SCc2ccccc2)nc2nc(N)sc12` class 0

Identify whether the molecule `NS(=O)(=O)c1cccc(Nc2nccc(Nc3cccc4[nH]ncc34)n2)c1` records logD below 2. class 0

Lab note: confirm whether the reported logD for this molecule is below 2, equality not counting. molecule: `Cc1[nH]c(C(=O)NC2CCN(c3cc(C(=O)O)cc(Cl)n3)CC2)c(Cl)c1Cl` class 1

For `c1ccc(-c2n[nH]c(-c3ccncc3)n2)nc1` , is the recorded logD below the cut-off of 2? class 1

Is the reported logD for `CS(=O)(=O)Cc1cc(N2CCOCC2)nc(-c2cccc3cc[nH]c23)n1` strictly below 2? class 0

In plain terms, does `O=S(=O)(Nc1cccnc1)c1ccc2c(c1)OCCO2` come in under 2 for logD? class 1

Here's an entry: `COc1cccc(C(=O)Nc2ccc(C)c(-n3cnc4ccc(N5CCN(C)CC5)cc4c3=O)c2)c1` . Is its logD below 2? class 0

Given `NC(=O)c1cccnc1Oc1ccccc1` , is recorded logD strictly lower than 2? class 1

logD under 2? Item: `C#CC(C)(C)NC(=O)c1sccc1Oc1ccc(F)cc1[N+](=O)[O-]` class 0

hey, is logD for `Cc1ccc(S(=O)(=O)N2CCN(C(=O)c3ccco3)CC2)cc1` lower than 2 or not? class 0

Does the reported logD of the following molecule sit strictly below 2? `COc1ccccc1C(=O)Nc1nc2ccccc2[nH]1` class 0

Measured values drawn from ChEMBL document CHEMBL3301361 for this set.
